// values below are reported EC50
# assay_target: human FXR ligand binding domain (LBD) (Homo sapiens)
# Construct: polyhistidine (pRSET-A vector leader) (N); made in house; host or cells: E. coli BL21 (DE3), pRSET-A vector
# protocol_description: FXR Cofactor Binding Assay (TRF, SRC-1 peptide recruitment)
# Format: biochemical
# experimental_conditions: protocol ⋄: 0.5 μL of test compound, final assay volume 25 μL; read-out: Activity (pEC50) (converted)
Where a name gives a salt, the structure may show the parent alone.

- compound: "CC(C)c1onc(-c2c(Cl)cccc2Cl)c1COc1ccc(-c2ccc3c(-c4nn[nH]n4)cccc3c2)cc1 [Example 12c]"
  assay_target: "human FXR ligand binding domain (LBD) (Homo sapiens)"
  value_type: "EC50"
  observed: "102 to 1000 nM"
- compound: "CC(C)c1onc(-c2c(Cl)cccc2Cl)c1COc1ccc(-c2ccc3c(C(=O)O)cccc3c2)cc1 [Example 1, Sodium Salt]"
  assay_target: "human FXR ligand binding domain (LBD) (Homo sapiens)"
  value_type: "EC50"
  observed: "< 100 nM"
- compound: "CC(C)c1onc(-c2c(Cl)cccc2Cl)c1COc1ccc(-c2ccc3c(C(N)=O)cccc3c2)cc1 [Example 12a]"
  assay_target: "human FXR ligand binding domain (LBD) (Homo sapiens)"
  value_type: "EC50"
  observed: "1020 to 10000 nM"
- compound: "CC(C)c1onc(CCc2c(Cl)cccc2Cl)c1COc1ccc(-c2ccc3c(C(=O)O)cccc3c2)cc1"
  assay_target: "human FXR ligand binding domain (LBD) (Homo sapiens)"
  value_type: "EC50"
  observed: "< 100 nM"
- compound: "CC(C)c1onc(Cc2c(Cl)cccc2Cl)c1COc1ccc(-c2ccc3c(C(=O)O)cccc3c2)cc1"
  assay_target: "human FXR ligand binding domain (LBD) (Homo sapiens)"
  value_type: "EC50"
  observed: "102 to 1000 nM"

Now for another entry.
// EC50 lookup, compound = CC(C)c1onc(-c2c(Cl)cccc2Cl)c1COc1ccc(-c2ccc3c(C#N)cccc3c2)cc1 [Example 12b] , result: 1020 to 10000 nM

====

# assay_target: human FXR ligand binding domain (LBD) (Homo sapiens, UniProt Q96RI1)
# Construct: polyhistidine (pRSET-A vector leader) (N); made in house; host or cells: E. coli BL21 (DE3), pRSET-A vector
# Sequence (Q96RI1 251-486): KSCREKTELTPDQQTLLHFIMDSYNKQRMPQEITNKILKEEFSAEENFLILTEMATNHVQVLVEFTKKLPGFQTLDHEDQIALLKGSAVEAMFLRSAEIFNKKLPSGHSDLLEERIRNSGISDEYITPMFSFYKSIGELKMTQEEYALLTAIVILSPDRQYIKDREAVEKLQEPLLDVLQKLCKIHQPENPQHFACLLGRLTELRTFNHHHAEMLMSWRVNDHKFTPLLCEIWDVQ
# Sequence (Q15788 676-700 partner): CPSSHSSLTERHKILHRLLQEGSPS
# protocol_description: FXR Cofactor Binding Assay (TRF, SRC-1 peptide recruitment)
# Assay type: biochemical
# experimental_conditions: protocol †: 0.1 μL of test compound, final assay volume 10 μL; read-out: Activity (pEC50) (converted)
Structures can show the parent of a compound that is named as a salt.
// values below are reported EC50

- compound: "CC(C)c1onc(-c2c(Cl)cccc2Cl)c1COc1ccc(-c2ccc3ccc(C(=O)O)cc3c2)cc1"
  EC50: "102 to 1000 nM"
- compound: "CC(C)c1onc(CCc2c(Cl)cccc2Cl)c1COc1ccc(-c2ccc3ccc(C(=O)O)cc3c2)cc1"
  EC50: "102 to 1000 nM"
- compound: "CC(C)c1onc(-c2c(Cl)cccc2Cl)c1COc1ccc(-c2ccc3c(C(=O)O)cccc3c2)cc1 [Example 1, Sodium Salt]"
  EC50: "< 100 nM"
- compound: "CC(C)c1onc(-c2c(Cl)cccc2Cl)c1COc1ccc(-c2ccc3c(C(=O)O)cccc3c2)c(Cl)c1"
  EC50: "102 to 1000 nM"
- compound: "CC(C)c1onc(CCc2c(Cl)cccc2Cl)c1COc1ccc(-c2ccc3c(C(=O)O)cccc3c2)cc1"
  EC50: "102 to 1000 nM"

// EC50 lookup, compound = CC(C)c1onc(-c2c(Cl)cccc2Cl)c1COc1ccc(-c2ccc3cccc(C(=O)O)c3c2)cc1 , result: 1020 to 10000 nM

// EC50 lookup, compound = CC(C)c1onc(-c2c(Cl)cccc2Cl)c1COc1ccc(-c2ccc3cc(C(=O)O)ccc3c2)cc1 , result: 102 to 1000 nM

// EC50 lookup, compound = O=C(O)c1cccc2cc(-c3ccc(OCc4c(-c5c(Cl)cccc5Cl)noc4C4CCC4)cc3)ccc12 , result: 102 to 1000 nM

// EC50 lookup, compound = CC(C)c1onc(CCc2c(Cl)cccc2Cl)c1COc1ccc(-c2ccc3cccc(C(=O)O)c3c2)cc1 , result: 1020 to 10000 nM
